- assaySystem: EcoFiu (Fiu_A694C-FM) (Escherichia coli, UniProt P75780, A694C)
- Sequence (P75780 32-760 A694C): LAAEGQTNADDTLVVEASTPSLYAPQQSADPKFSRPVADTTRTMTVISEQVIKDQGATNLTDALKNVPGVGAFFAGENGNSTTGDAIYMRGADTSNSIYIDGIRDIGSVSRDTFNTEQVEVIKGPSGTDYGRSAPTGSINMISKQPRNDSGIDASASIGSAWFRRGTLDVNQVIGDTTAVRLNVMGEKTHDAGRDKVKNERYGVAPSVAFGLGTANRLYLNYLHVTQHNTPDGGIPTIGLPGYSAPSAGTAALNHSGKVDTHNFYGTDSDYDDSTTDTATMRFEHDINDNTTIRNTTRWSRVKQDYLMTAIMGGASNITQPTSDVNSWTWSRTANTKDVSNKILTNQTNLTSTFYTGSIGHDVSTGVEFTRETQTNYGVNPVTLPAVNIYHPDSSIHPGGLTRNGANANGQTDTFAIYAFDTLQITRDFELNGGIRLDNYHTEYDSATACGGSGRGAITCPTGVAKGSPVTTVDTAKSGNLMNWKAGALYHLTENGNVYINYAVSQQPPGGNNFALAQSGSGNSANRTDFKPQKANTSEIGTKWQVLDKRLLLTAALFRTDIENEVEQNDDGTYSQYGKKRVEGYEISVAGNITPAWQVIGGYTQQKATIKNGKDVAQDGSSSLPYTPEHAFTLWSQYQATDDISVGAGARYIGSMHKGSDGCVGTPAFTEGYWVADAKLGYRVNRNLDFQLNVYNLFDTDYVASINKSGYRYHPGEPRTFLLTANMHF
- assayProcedure: biochemical
- Assay type: binding
- assaySetup: apparent KD, EcoFiu sensor (Fiu_A694C-FM; FeDHBA with Fiu_N554C-FM); NB = no binding
measurementType: pKd
Expect pKd as a plain number equal to -log10 of the molar concentration.

INPUT: EcoFiu (Fiu_A694C-FM) (Escherichia coli, UniProt P75780, A694C) / pKd / O=C(N[C@@H](CO)C(=O)OC[C@H](NC(=O)c1cccc(O)c1[O-])C(=O)O)c1cccc([O-])c1[O-].[Fe+3] [FeEnt*, Fe(DHBS)2] : value?
OUTPUT: 6.13

---
INPUT: EcoFiu (Fiu_A694C-FM) (Escherichia coli, UniProt P75780, A694C) / pKd / CC(C)(O/N=C(\C(=O)N[C@@H]1C(=O)N2C(C(=O)O)=C(C[N+]3(CCNC(=O)c4ccc(O)c(O)c4Cl)CCCC3)CS[C@H]12)c1csc(N)n1)C(=O)O.[Fe+3] [FeFDC] : value?
OUTPUT: 6.30

INPUT: EcoFiu (Fiu_A694C-FM) (Escherichia coli, UniProt P75780, A694C) / pKd / O=C(O)c1cccc(O)c1O.O=C(O)c1cccc(O)c1O.O=C(O)c1cccc(O)c1O.[Fe+3] [FeDHBA] : value?
OUTPUT: 6.15

Origin of measurements: paper PMC11005823
